Observed Property: melting point

Observe how each entry below is paired with its result.
1. CC[C@@H]1CC2=CCCC[C@@H]2[C@H]2CC[C@]3(C)[C@@H](O)CC[C@H]3[C@H]12; 155 to 157 °C
2. C=C[C@@H]1CC2=C/C(=N/O)CC[C@@H]2[C@H]2CC[C@]3(C)[C@@H](O)CC[C@H]3[C@@H]21; 206 to 224 °C
3. CC[C@@H]1CC2=CC(=O)CC[C@@H]2[C@H]2CC[C@]3(C)[C@@H](O)CC[C@H]3[C@H]12; 142.5 to 143.5 °C

Query: Sample CC[C@@H]1CC2=C(CC[C@@H](O)C2)[C@H]2CC[C@]3(C)[C@@H](O)CC[C@H]3[C@H]12 — what was its melting point?
Result: 98 to 100 °C

* * *

Reported half-life at 10 nM values are given for each entry in this list.
Protocol Text: t1/2 after incubation with human hepatocytes
Assay type: in vitro ADME
Measurement Setup: male; cryopreserved human hepatocytes in suspension, 10 nM compound, 37° C., sampled at 0.5, 1 and 3 h, LC-MS/MS
Express your answer in min, writing the number without its unit.

Observe how each entry below is paired with its result.
1) CC[C@@H]1CC2=CC(=O)CC[C@@H]2[C@H]2CC[C@]3(CC)[C@@H](O)CC[C@H]3[C@H]12 [Example 13]; 48
2) C=C[C@@H]1CC2=CC(=O)CC[C@@H]2[C@H]2CC[C@]3(CC)[C@@H](O)CC[C@H]3[C@@H]21 [Example 14]; 20
3) C[C@]12CC[C@H]3[C@@H]([C@H](C4CC4)CC4=CC(=O)CC[C@@H]43)[C@@H]1CC[C@@H]2O [Example 10]; 30

Attention now turns to another entry.
Query: Sample CC[C@@H]1CC2=CC(=O)CC[C@@H]2[C@H]2CC[C@]3(C)[C@@H](O)CC[C@H]3[C@H]12 [Example 1] — what was its half-life at 10 nM?
Result: 48
